Recorded values, source patent US20260070902A1.

SUBJECT_OF_TEST: human CCR6 (Homo sapiens)
Sequence (P51684 whole entry): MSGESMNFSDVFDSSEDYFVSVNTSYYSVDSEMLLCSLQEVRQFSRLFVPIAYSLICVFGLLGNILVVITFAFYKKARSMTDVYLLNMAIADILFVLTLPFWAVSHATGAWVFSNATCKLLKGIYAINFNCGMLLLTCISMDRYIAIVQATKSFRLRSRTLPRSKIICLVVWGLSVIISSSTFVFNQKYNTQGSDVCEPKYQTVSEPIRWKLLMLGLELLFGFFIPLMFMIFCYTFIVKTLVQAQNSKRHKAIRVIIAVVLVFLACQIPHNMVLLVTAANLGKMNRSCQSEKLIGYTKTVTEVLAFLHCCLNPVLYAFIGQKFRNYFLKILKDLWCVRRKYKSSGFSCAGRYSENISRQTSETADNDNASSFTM
EXPERIMENT_DESCRIPTION: Human CCR6-CRE reporter assay
Type: cell-based
Parameters: The second construct contained the open reading frame of human CCR6 in the pUNO1 backbone; host or cells: 293FT cells
TEST_SETTINGS: relative -Log IC50; 293FT cells transfected with human CCR6 and CRE-luciferase reporter; 6 μM Forskolin, 6 nM CCL20; 5 h

>  <MOLECULE>
N#Cc1cnc2ccc(-c3ccc(S(=O)(=O)[C@H]4CC[C@@H](Nc5ccc(S(F)(F)(F)(F)F)cc5)CC4)cc3)cn12 [Example 17]

>  <SUBJECT_OF_TEST>
human CCR6 (Homo sapiens)

>  <IC50>
794 nM

$$$$
>  <MOLECULE>
N=S(=O)(c1ccc(-c2ccc3c(c2)CC(=O)N3)cc1)N1CCC(Nc2ccc(S(F)(F)(F)(F)F)cc2)CC1 (stereo not shown) [Example 123]

>  <SUBJECT_OF_TEST>
human CCR6 (Homo sapiens)

>  <IC50>
251 nM

$$$$
>  <MOLECULE>
Cc1nc2ccc(-c3ccc(S(=O)(=O)[C@H]4CC[C@H](Nc5ccc(S(F)(F)(F)(F)F)cc5)CC4)cc3)cn2n1 [Example 40]

>  <SUBJECT_OF_TEST>
human CCR6 (Homo sapiens)

>  <IC50>
100 nM

$$$$
>  <MOLECULE>
O=S(=O)(c1ccc(-c2ccc3nnc([C@@H]4CCCN4)n3c2)cc1)[C@H]1CC[C@H](Nc2ccc(S(F)(F)(F)(F)F)cc2)CC1 [Example 161]

>  <SUBJECT_OF_TEST>
human CCR6 (Homo sapiens)

>  <IC50>
79.4 nM

$$$$
>  <MOLECULE>
N=S(=O)(c1ccc(-c2ccnc(C(N)=O)c2)cc1)[C@H]1CC[C@H](Nc2ccc(S(F)(F)(F)(F)F)cc2)CC1 (single isomer, unassigned; (+)) [Example 130]

>  <SUBJECT_OF_TEST>
human CCR6 (Homo sapiens)

>  <IC50>
200 nM

$$$$
>  <MOLECULE>
CN(C)C(=O)c1ccc(-c2ccc(S(=O)(=O)[C@H]3CC[C@H](Nc4ccc(S(F)(F)(F)(F)F)cc4)CC3)cc2)nc1 [Example 46]

>  <SUBJECT_OF_TEST>
human CCR6 (Homo sapiens)

>  <IC50>
251 nM

$$$$
>  <MOLECULE>
NC(=O)c1cnc2ccc(-c3ccc(S(=O)(=O)[C@H]4CC[C@H](Nc5ccc(S(F)(F)(F)(F)F)cc5)CC4)cc3)cn12 [Example 34]

>  <SUBJECT_OF_TEST>
human CCR6 (Homo sapiens)

>  <IC50>
200 nM

$$$$
>  <MOLECULE>
O=S(=O)(c1ccc(-c2ccc3nccn3c2)cc1)[C@H]1CC[C@@H](Nc2ccc(S(F)(F)(F)(F)F)cc2)CC1 [Example 18]

>  <SUBJECT_OF_TEST>
human CCR6 (Homo sapiens)

>  <IC50>
158 nM

$$$$
>  <MOLECULE>
NC(=O)c1ccc(-c2ccc(S(=O)(=O)[C@H]3CC[C@H](Nc4ccc(S(F)(F)(F)(F)F)cc4)CC3)cc2)nc1 [Example 49]

>  <SUBJECT_OF_TEST>
human CCR6 (Homo sapiens)

>  <IC50>
79.4 nM

$$$$
>  <MOLECULE>
COC1CC2(CCN(c3ccc(S(=O)(=O)N4CCC(Nc5ccc(S(F)(F)(F)(F)F)cc5)CC4)cc3)CC2)C1 [Example 132]

>  <SUBJECT_OF_TEST>
human CCR6 (Homo sapiens)

>  <IC50>
79.4 nM

$$$$
>  <MOLECULE>
O=S(=O)(c1ccc(-c2ccc3nccn3c2)cc1Cl)N1CCC(Nc2ccc(S(F)(F)(F)(F)F)cc2)CC1 [Example 79]

>  <SUBJECT_OF_TEST>
human CCR6 (Homo sapiens)

>  <IC50>
1580 nM

$$$$
>  <MOLECULE>
Cc1nnc2cc(-c3ccc(S(=N)(=O)[C@H]4CC[C@H](Nc5ccc(S(F)(F)(F)(F)F)cc5)CC4)cc3)ccn12 (stereo partly shown) [Example 104]

>  <SUBJECT_OF_TEST>
human CCR6 (Homo sapiens)

>  <IC50>
398 nM

$$$$
>  <MOLECULE>
Cc1cn2cc(-c3ccc(S(=N)(=O)[C@H]4CC[C@H](Nc5ccc(S(F)(F)(F)(F)F)cc5)CC4)cc3)ncc2n1 (stereo partly shown) [Example 103]

>  <SUBJECT_OF_TEST>
human CCR6 (Homo sapiens)

>  <IC50>
1260 nM

$$$$
